Recorded values, source BindingDB's records for doi:10.1021/jm950717a.

biological target: Dimer of Gag-Pol polyprotein [489-587] (Human immunodeficiency virus 1, UniProt P12497); construct: 489-587; test: Protease Inhibition Assay; settings: pH 5.5; 37 °C
pIC50: −log10 of the molar value.
Measured pIC50, listed per entry for reference.
assayEndpoint: pIC50

[[record]]
molecule = "CC(C)(C)OC(=O)N[C@@H](Cc1ccccc1)[C@H](O)CNC[C@@H](O)[C@H](Cc1ccc(OCC(=O)N2CCOCC2)cc1)NC(=O)OC(C)(C)C"
system = "Dimer of Gag-Pol polyprotein [489-587] (Human immunodeficiency virus 1, UniProt P12497)"
assayendpoint = "pIC50"
experimentalvalue = 7.00

[[record]]
molecule = "CC(C)(C)OC(=O)N[C@@H](Cc1ccccc1)[C@H](O)CNC[C@@H](O)[C@H](Cc1ccc(OCCN2CCOCC2)cc1)NC(=O)OC(C)(C)C"
system = "Dimer of Gag-Pol polyprotein [489-587] (Human immunodeficiency virus 1, UniProt P12497)"
assayendpoint = "pIC50"
experimentalvalue = 7.00

[[record]]
molecule = "CC(C)(C)OC(=O)N[C@@H](Cc1ccccc1)[C@H](O)CNC[C@@H](O)[C@H](Cc1ccc(OCC(O)c2cccnc2)cc1)NC(=O)OC(C)(C)C (stereo partly drawn)"
system = "Dimer of Gag-Pol polyprotein [489-587] (Human immunodeficiency virus 1, UniProt P12497)"
assayendpoint = "pIC50"
experimentalvalue = 6.96

